Tested on: CAMA-1 (Breast Carcinoma)
ASSAY_PROTOCOL: Bliss excess, mean over the matrix (fraction); higher = more synergy;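 also: after 72 h of two-drug dosing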
Give Bliss excess for every item shown.

Requested read-out: Bliss excess. Entry: Cc1c2c(nn1C)CSCc1cc(n(C)n1)CSc1cc(c3ccccc3c1)OCCCc1c(C(=O)O)n(C)c3c-2c(Cl)ccc13 [AZD5991] + CC(=O)O[C@H]1C(=O)[C@@]2(C)[C@H]([C@H](OC(=O)c3ccccc3)[C@]3(O)C[C@H](OC(=O)[C@H](O)[C@@H](NC(=O)c4ccccc4)c4ccccc4)C(C)=C1C3(C)C)[C@]1(OC(C)=O)CO[C@@H]1C[C@@H]2O [Paclitaxel] (first compound max 1 µM, 7x7, partner max 3 µM) 0.117

Need Bliss excess of Cc1cc2ncnn2cc1Nc1ncc2c(n1)n(C1CCOCC1)c(=O)n2C [AZD7648] + COc1cc([C@@H]2c3cc4c(cc3[C@@H](O[C@@H]3O[C@@H]5CO[C@@H](C)O[C@H]5[C@H](O)[C@H]3O)[C@H]3COC(=O)[C@H]23)OCO4)cc(OC)c1O [Etoposide] (first compound max 10 µM, 7x7, partner max 10 µM) , thanks. -0.012

----------
System: TE-6 (Esophageal Squamous Cell Carcinoma)
ASSAY_PROTOCOL: Bliss excess, mean over the matrix (fraction); higher = more synergy
MEASUREMENT_NAME: Bliss excess
Write the number on its own, no unit after it.

Name the recorded Bliss excess for Cc1c2c(nn1C)CSCc1cc(n(C)n1)CSc1cc(c3ccccc3c1)OCCCc1c(C(=O)O)n(C)c3c-2c(Cl)ccc13 [AZD5991] + C1CN(CCC1(C(=O)N[C@@H](CCO)C2=CC=C(C=C2)Cl)N)C3=NC=NC4=C3C=CN4 [Capivasertib] (first compound max 1 µM, 7x7, partner max 3 µM) . -0.0177

Bench note: what Bliss excess did COc1cccc(OCCCN)c1-c1cc(Nc2cnc(C#N)cn2)n[nH]1 [Prexasertib] + CN(C)CCCOc1ccc(-c2ccc3ncc4c(c3c2)n(C2CCOCC2)c(=O)n4C)cn1 [AZD0156] (first compound max 1 µM, 7x7, partner max 1 µM) show? -0.0081

For the molecule shown here, CC1(C)CCC(CN2CCN(c3ccc(C(=O)NS(=O)(=O)c4ccc(NCC5CCOCC5)c([N+](=O)[O-])c4)c(Oc4cnc5[nH]ccc5c4)c3)CC2)=C(c2ccc(Cl)cc2)C1 [Venetoclax] + C[C@@H]1COCCN1C2=NC(=NC(=C2)C3(CC3)[S@](=N)(=O)C)C4=C5C=CNC5=NC=C4 [AZD6738] (first compound max 1 µM, 7x7, partner max 10 µM) , give the reported Bliss excess. -0.0127

Requested read-out: Bliss excess. Entry: CN(CCO)CC[C@H](CSc1ccccc1)Nc1ccc(S(=O)(=O)NC(=O)c2ccc(N3CCC([C@@H](O)c4ccccc4-c4ccc(Cl)cc4)CC3)cc2)cc1S(=O)(=O)C(F)(F)F [AZD4320] + C[C@@H](Nc1cc(F)cc(F)c1)c1cc(C(=O)N(C)C)cc2c(=O)cc(N3CCOCC3)oc12 [AZD8186] (first compound max 1 µM, 7x7, partner max 3 µM) 0.0313

Recorded Bliss excess for COc1cc2ncnc(Nc3ccc(F)c(Cl)c3)c2cc1OCCCN1CCOCC1 [Gefitinib] + CC(C)n1c(=O)n(C)c2cnc3cc(F)c(-c4ccc(OCCCN5CCCCC5)nc4)cc3c21 [AZD1390] (first compound max 10 µM, 7x7, partner max 0.3 µM) , please? -0.117

Please report the recorded Bliss excess for CN(C)CCCOc1ccc(-c2ccc3ncc4c(c3c2)n(C2CCOCC2)c(=O)n4C)cn1 [AZD0156] + O=C(c1cc(Cc2n[nH]c(=O)c3ccccc23)ccc1F)N1CCN(C(=O)C2CC2)CC1 [Olaparib] (first compound max 3 µM, partner max 3 µM) . 0.0029

Item COc1nnc2ccc(N3CCC(c4ccc(OCCN5CCN(C)C(=O)[C@H]5C)cc4)CC3)nn12 [AZD5153] + CN(CC[C@H](CSC1=CC=CC=C1)NC2=C(C=C(C=C2)S(=O)(=O)NC(=O)C3=CC=C(C=C3)N4CCC(CC4)[C@H](C5=CC=CC=C5C6=CC=C(C=C6)Cl)O)S(=O)(=O)C(F)(F)F)CCO [AZD4320] (first compound max 1 µM, 7x7, partner max 1 µM) has what recorded Bliss excess? -0.0157
